Values from patent US12415815B2

- Test system: Alternaria alternata
- Test method notes: Fungicidal activity screen in amended agar, 96 well plates, Alternaria alternata
- Type: cell-based
- Condition set: Medium N agar, 1,000 spores/mL, 20, 2, 0.2 and 0.02 ppm, room temperature (18° C.), assessed after 3 to 4 days, read-out: Alternaria (fungal growth vs DMSO controls, EC50 ranking)
- Method: Compounds were screened in 96 well plates with 10 compounds per plate. Each compound was screened using agar amended to 20, 2, 0.2 and 0.02 ppm of the test material. Proline at 50 and 10 ppm and 0.2% DMSO were used respectively as positive and negative controls. Each test concentration and standard were tested twice on a plate. […] Plates were incubated at room temperature (18° C.) and assessed after: • a) 3 to 4 days A. alternata and B. cinerea • b) 7 days for Z. tritici […]
Measured quantity: EC50

See these solved cases before continuing.
COc1ccnc2c(=O)n(-c3nc4ccc(Oc5ccccc5Cl)cc4s3)c(=O)oc12	2 to 20 µg/mL
CCOc1ccccc1Oc1ccc2nc(-n3c(=S)oc4c(OC)ccnc4c3=O)sc2c1	≥ 20 µg/mL
COc1ccnc2c(=O)n(-c3nc4ccc(Oc5ccc(F)cc5Cl)cc4s3)c(=S)oc12	2 to 20 µg/mL
COc1ccnc2c(=O)n(-c3nc4ccc(Oc5cccc(Cl)c5)cc4s3)c(=S)oc12	2 to 20 µg/mL
COc1ccnc2c(=O)n(-c3nc4ccc(Oc5ccccc5)cc4s3)c(=O)oc12	2 to 20 µg/mL
COc1ccnc2c(=O)n(-c3nc4ccc(Oc5cncc(C(F)(F)F)c5)cc4s3)c(=O)oc12	2 to 20 µg/mL
COc1ccnc2c(=O)n(-c3nc4ccc(Sc5ccccc5Cl)nc4s3)c(=S)oc12	≥ 20 µg/mL

Kindly consider the entry below.
Which EC50 value belongs to "COc1ccnc2c(=O)n(-c3nc4ccc(Oc5ccccc5C(F)(F)F)cc4s3)c(=S)oc12" ?
2 to 20 µg/mL

* * *

EC50 reference
- System: Alternaria alternata
- Test method notes: Fungicidal activity screen in amended agar, 96 well plates, Alternaria alternata
- Assay type: cell-based
- Condition set: Medium N agar, 1,000 spores/mL, 20, 2, 0.2 and 0.02 ppm, room temperature (18° C.), assessed after 3 to 4 days, read-out: Alternaria (fungal growth vs DMSO controls, EC50 ranking)

See these solved cases before continuing.
COc1ccnc2c(=O)n(-c3nc4ccc(Oc5cccc(F)c5)cc4s3)c(=S)oc12	2 to 20 mg/L
COc1ccnc2c(=O)n(-c3nc4ccc(Oc5cccnc5Cl)cc4s3)c(=S)oc12	≥ 20 mg/L
COc1ccccc1Oc1ccc2nc(-n3c(=S)oc4c(OC)ccnc4c3=O)sc2n1	≥ 20 mg/L

Kindly consider the entry below.
Which EC50 value belongs to "COc1ccnc2c(=O)n(-c3nc4ccc(Oc5ccc(F)cc5Cl)cc4s3)c(=O)oc12" ?
2 to 20 mg/L

* * *

- Tested on: Alternaria alternata
- Test method notes: Fungicidal activity screen in amended agar, 96 well plates, Alternaria alternata
- Format: cell-based
- Condition set: Medium N agar, 1,000 spores/mL, 20, 2, 0.2 and 0.02 ppm, room temperature (18° C.), assessed after 3 to 4 days, read-out: Alternaria (fungal growth vs DMSO controls, EC50 ranking)
Measured quantity: EC50

Which EC50 value belongs to "COc1ccnc2c(=O)n(-c3nc4ccc(Cc5ccccc5Cl)cc4s3)c(=S)oc12" ?
≥ 20 µg/mL
